# Test System: human ecto-5′-NT (Homo sapiens, UniProt P21589)
# Construct: purchased OriGene Technologies, Inc (Rockville, MD, USA)
# Assay Method Text: Non-ionic detergent-sensitivity evaluation: enzyme inhibition assay with 0.01% (v/v) Triton X-100
# Type: biochemical
# Study Conditions: human ecto-5′-NT 3.6 nM, AMP 500 µM, read-out: IC50 in the presence of 0.01% (v/v) Triton X-100
Catalogue of IC50 readings, one per entry.
Quick reminder: number only, in µM, skip the unit.

Nc1ncnc2c1ncn2[C@@H]1O[C@H](COP(=O)(O)OP(=O)(O)O)[C@@H](O)[C@H]1O [ADP, adenosine diphosphate, reference compound] :: 31.7

Now let's try a different one.
-- ask Look up IC50: O=C(Nc1nc2ccc(F)cc2s1)c1cc(-c2ccccc2O)n[nH]1 [B]
-- reply 2.3

---

# Assay Method Text: Turbidimetric solubility assay
# Type: physicochemical
# Study Conditions: HEPES buffer with MgCl2 and CaCl2, aqueous buffer, kinetic from dmso stock; HEPES buffer 10 mM pH 7.4, MgCl2 2 mM, CaCl2 1 mM, 1.0% (v/v) DMSO; turbidity at 400 nm; read-out: Estimated Solubility
Catalogue of solubility readings, one per entry.
Quick reminder: number only, in µM, skip the unit.

-- ask Look up solubility: `O=C(Nc1nc2ccc(F)cc2s1)c1cc(-c2ccccc2O)n[nH]1`
-- reply 8.8

-- ask Look up solubility: `CSc1nnc(NC(=O)c2cc(-c3cc(C)cc(C)c3O)n[nH]2)s1`
-- reply 11.7

-- ask Look up solubility: `O=C(COC(=O)c1n[nH]c2ccccc12)Nc1c(F)cccc1F`
-- reply 79.1

---

# Test System: human ecto-5′-NT (Homo sapiens, UniProt P21589)
# Construct: purchased OriGene Technologies, Inc (Rockville, MD, USA)
# Assay Method Text: Enzyme inhibition assay (without Triton X-100), malachite green method
# Assay type: biochemical
# Study Conditions: human ecto-5′-NT 3.6 nM, AMP 500 µM, without Triton X-100, HEPES pH 7.4
Outcome Measure: IC50 (µM)
Quick reminder: number only, in µM, skip the unit.

Sample records with IC50:
O=C(Nc1nc2ccc(F)cc2s1)c1cc(-c2ccccc2O)n[nH]1 :: 1.9
Nc1ncnc2c1ncn2[C@@H]1O[C@H](COP(=O)(O)OP(=O)(O)O)[C@@H](O)[C@H]1O [ADP, adenosine diphosphate, reference compound] :: 29.7
CSc1nnc(NC(=O)c2cc(-c3cc(C)cc(C)c3O)n[nH]2)s1 :: 16.3

-- ask Look up IC50: `CS(=O)(=O)c1ccc2nc(NC(=O)c3cc(-c4ccccc4O)[nH]n3)sc2c1`
-- reply 2.2

-- ask Look up IC50: `O=C(COC(=O)c1n[nH]c2ccccc12)Nc1c(F)cccc1F`
-- reply 82.9

---

# Test System: human ecto-5′-NT (Homo sapiens)
# Construct: purchased OriGene Technologies, Inc (Rockville, MD, USA)
# Sequence (P21589 27-574): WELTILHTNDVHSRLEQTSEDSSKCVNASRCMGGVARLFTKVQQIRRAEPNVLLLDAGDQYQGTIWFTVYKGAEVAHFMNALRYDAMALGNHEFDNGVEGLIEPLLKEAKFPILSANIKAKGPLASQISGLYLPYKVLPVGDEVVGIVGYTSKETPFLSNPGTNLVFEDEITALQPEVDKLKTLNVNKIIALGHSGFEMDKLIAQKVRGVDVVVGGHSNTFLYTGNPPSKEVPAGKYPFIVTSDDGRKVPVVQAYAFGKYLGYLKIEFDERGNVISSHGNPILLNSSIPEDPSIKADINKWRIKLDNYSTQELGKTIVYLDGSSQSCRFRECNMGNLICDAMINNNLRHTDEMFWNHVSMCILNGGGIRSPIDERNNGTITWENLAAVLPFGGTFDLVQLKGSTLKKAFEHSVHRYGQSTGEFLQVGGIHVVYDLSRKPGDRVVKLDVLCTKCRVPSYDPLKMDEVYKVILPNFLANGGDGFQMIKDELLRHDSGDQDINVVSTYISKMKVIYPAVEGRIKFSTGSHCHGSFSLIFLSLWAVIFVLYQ
# Assay Method Text: Non-ionic detergent-sensitivity evaluation: enzyme inhibition assay with 0.01% (v/v) Triton X-100
# Format: biochemical
# Study Conditions: human ecto-5′-NT 3.6 nM, AMP 500 µM, read-out: IC50 in the presence of 0.01% (v/v) Triton X-100
pIC50: −log10 of the molar value.
Catalogue of pIC50 readings, one per entry.

Sample records with pIC50:
O=C(COC(=O)c1n[nH]c2ccccc12)Nc1c(F)cccc1F :: < 3.30
CSc1nnc(NC(=O)c2cc(-c3cc(C)cc(C)c3O)n[nH]2)s1 :: < 4.00

-- ask Look up pIC50: `CS(=O)(=O)c1ccc2nc(NC(=O)c3cc(-c4ccccc4O)[nH]n3)sc2c1`
-- reply < 4.44
